Hey, just so you know, these numbers are from paper PMC10709327.

assay: CAP-GDF15 plasma concentration after administration; type: in vivo, mouse; conditions: mouse, plasma, ip; 50 mg/kg intraperitoneal; from approximately 1 nM endogenous level; read-out: maximum plasma concentration after dosing, as read from the figure by a reviewer
Where a SMILES comes first, the peptide text is derived from it. [ ]: non-standard residue; d: D form. pGlu = O=C1CC[C@@H](C(=O)O)N1
reported-endpoint: Cmax (nM)
Your answer is read as nM, so omit the unit and give the number.

So, CC(C)C[C@H](NC(=O)[C@@H]1CCC(=O)N1)C(=O)N[C@@H](CCC(=O)O)C(=O)N[C@@H](CC(C)C)C(=O)N[C@@H](CCCNC(=N)N)C(=O)N[C@@H](CC(C)C)C(=O)N[C@@H](CCCNC(=N)N)C(=O)N[C@H](C(=O)N[C@@H](C)C(=O)N[C@@H](C)C(=O)NCC(=O)N[C@@H](CCCNC(=N)N)C(N)=O)C(C)C [CAP-GDF15] ([pGlu]LELRLRVAAGR-NH2) ? Its Cmax was 4
